- assay.comment: Drug uptake in Sprague-Dawley rat lung at 1 mg/ml administered in trachea after 60 mins by LC-MS/MS analysis
- Assay type: ADME, tissue-based
- condition.info: inhaled or intranasal, read-out: Drug uptake
property.label: concentration at 1 h (ng/mL)
One number for each entry, in ng/mL.

Query string: Could you please provide reported concentration at 1 h for COC(=O)[C@]12CCC(C)(C)C[C@H]1[C@H]1C(=O)C=C3[C@@]4(C)C(O[C@@H]5CO[C@H]6[C@@H]5OC[C@H]6O[N+](=O)[O-])C(C#N)=C(OC(C)=O)C(C)(C)[C@@H]4CC[C@@]3(C)[C@]1(C)CC2 (some centres not stated) ? Thanks!
Result string: 243

meta.source: ChEMBL document CHEMBL4052829
